# Tested on: Plasmodium falciparum AMA1 (3D7) - RON2 peptide interaction
# test: qHTS for Inhibitors of AMA1-RON; Towards Development of Antimalarial Drug Lead: Primary Screen; note: nearly all actives have a fitted effect of over 45% in size
# recorded conditions: AlphaScreen AMA1-biotinylated RON2 peptide binding; series mostly up to 58.2 µM
Out of some 360,000 compounds screened, about 740 (0.21%) were called active. About 2% were inconclusive and are not listed. Calls come from the whole dose curve; as a rule, active = well fitted inhibition curve with a large enough effect; inconclusive = small, poorly fitted or top-dose-only effect; inactive = no such curve, though single readings can be large or run the other way. Many of the other results were omitted from the sample, so actives are more common in it than they were.
API: response.call in active, inactive

[[record]]
compound = "CCOC(=O)N1CCN(C(=O)COCc2cc(-c3ccc4c(c3)OCO4)on2)CC1"
target_or_test_system = "Plasmodium falciparum AMA1 (3D7) - RON2 peptide interaction"
assigned_label = "inactive"


Problem: Name the outcome recorded for `O=C(O)CCCN1C(=O)c2ccccc2Sc2ncccc21` in the assay.
Result: inactive

Problem: Name the outcome recorded for `COc1ccc(/C(N)=N/OC(=O)Oc2ccccc2)cc1` in the assay.
Result: inactive

Problem: Returns: the outcome recorded for `CCN(c1ccc(NC(=O)COC(=O)CCc2nc3ccccc3n2-c2ccccc2)cc1)C(C)C` in this assay.
Result: active

Problem: What outcome does the record of this test show for Cc1ccc([N+](=O)[O-])c(OCCCNCC(C)O)c1 (stereo unspecified) ?
Result: inactive

Problem: How did this test come out for `COc1ccc2c(c1)c(=Cc1ccc(N(C)C)cc1)c1cc(-c3ccccc3)[n+](C)n12` ?
Result: active

src = PubChem BioAssay AID720542
